systemName: T1, mTet3-CXXC (Mus musculus (mouse), UniProt Q8BG87 51-96)
T1 chain: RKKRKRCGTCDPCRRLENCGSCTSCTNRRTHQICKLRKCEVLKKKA
assayMethodText: ITC

{"columns": ["binder", "units", "Kd"],
 "data": [
  ["CcaCG DNA (dsDNA, 5-carboxyl-dC at position 6 of both strands) DNA 1: GAATCCGGATTC DNA 2: GAATCCGGATTC", "nM", 560],
  ["hemi-CcaCG DNA (dsDNA, 5-carboxyl-dC at position 6 of one strand only) DNA 1: GAATCCGGATTC DNA 2: GAATCCGGATTC", "nM", 1570],
  ["CmCG DNA (dsDNA, 5-methyl-dC at position 6 of both strands) DNA 1: GAATCCGGATTC DNA 2: GAATCCGGATTC", "nM", 5590],
  ["CCG DNA (dsDNA) DNA 1: GAATCCGGATTC DNA 2: GAATCCGGATTC", "nM", 1880],
  ["CfCG DNA (dsDNA, 5-formyl-dC at position 6 of both strands) DNA 1: GAATCCGGATTC DNA 2: GAATCCGGATTC", "nM", 6130]
]}
